All values here come from ChEMBL document CHEMBL1208667.

# System: MIA PaCa-2
# protocol.text: Cytotoxicity against human MIAPaCa2 cells at 0.1 to 100 uM after 72 hrs by MTT assay
# Format: functional, cell-based
Activity calls are given as the source filed them. No cut-off for these calls is given here.
I would appreciate it if you answered using one of these outcomes: active, inactive

Query: Outcome logged for `Cc1c2cc(NC(=O)NCCCCCCCCCNC(=O)Nc3ccc4c(c3)c(C)[n+](C)c3ccccc43)ccc2c2ccccc2[n+]1C.O=S(=O)([O-])O.O=S(=O)([O-])O` in this assay:
Reply: inactive

Query: Outcome logged for `Cc1c2cc(NC(=O)NCCNC(=O)Nc3ccc4c(c3)c(C)[n+](C)c3ccccc43)ccc2c2ccccc2[n+]1C.O=S(=O)([O-])O.O=S(=O)([O-])O` in this assay:
Reply: active

Query: Outcome logged for `Cc1c2cc(NC(=O)NCCCCCCNC(=O)Nc3ccc4c(c3)c(C)[n+](C)c3ccccc43)ccc2c2ccccc2[n+]1C.O=S(=O)([O-])O.O=S(=O)([O-])O` in this assay:
Reply: active

Query: Outcome logged for `Cc1nc2ccccc2c2ccc(NC(=O)NCCCCCCCCCNC(=O)Nc3ccc4c(c3)c(C)nc3ccccc34)cc12` in this assay:
Reply: inactive
